Reference source for all entries: paper PMC5540273

Tested on: NLK
Details: concentration: 1 μM, replicates: in singlicate; n = 1;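 also: KINOMEscan kinase panel screen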
ASSAY_READOUT: %Inh (%)

[
  {
    "MOLECULE": "COc1ccc(C2=C(Nc3cccc(C(=O)O)c3)C(=O)NC2=O)cc1 [SB-390765]",
    "ASSAY_READOUT": "%Inh",
    "NUMERIC_READOUT": 1
  },
  {
    "MOLECULE": "Cn1ccc2ncnc(Oc3ccc(NC(=O)Nc4ccccc4)cc3)c21",
    "ASSAY_READOUT": "%Inh",
    "NUMERIC_READOUT": 11
  },
  {
    "MOLECULE": "Cc1cccc(-c2nc(Nc3ccncc3)c3ccccc3n2)n1 [GW855857]",
    "ASSAY_READOUT": "%Inh",
    "NUMERIC_READOUT": 47
  },
  {
    "MOLECULE": "CC1=C(C(=O)Nc2cc3cn[nH]c3cc2F)C(c2ccc(C(F)(F)F)cc2)CC(=O)N1 (centres unmarked) [GSK429286]",
    "ASSAY_READOUT": "%Inh",
    "NUMERIC_READOUT": 13
  },
  {
    "MOLECULE": "O=C(Nc1n[nH]c2nc(-c3nccs3)c(Br)cc12)C1CCCC1 [SB-742609]",
    "ASSAY_READOUT": "%Inh",
    "NUMERIC_READOUT": 31
  },
  {
    "MOLECULE": "Cc1c(Cn2ccn3c(=O)cc(N4CCOCC4)nc23)cccc1C(F)(F)F [GSK2289044]",
    "ASSAY_READOUT": "%Inh",
    "NUMERIC_READOUT": 27
  },
  {
    "MOLECULE": "COc1cc(Nc2nccc(N3CCC(NC(=O)Nc4cc(C)ccc4C)C3)n2)cc(OC)c1OC (centres unmarked) [GSK1379762]",
    "ASSAY_READOUT": "%Inh",
    "NUMERIC_READOUT": 0
  },
  {
    "MOLECULE": "COC(=O)c1c(-c2ccccc2)c2cc(OC)ccc2c(=O)n1Cc1ccccc1",
    "ASSAY_READOUT": "%Inh",
    "NUMERIC_READOUT": 0
  },
  {
    "MOLECULE": "Cc1cccc(-c2nc(-c3ccc(S(C)(=O)=O)cc3)sc2-c2ccnc(NCCc3ccccc3)c2)c1",
    "ASSAY_READOUT": "%Inh",
    "NUMERIC_READOUT": 11
  },
  {
    "MOLECULE": "O=S(=O)(c1ccc(-c2ccnc3[nH]ccc23)cc1)N1CCCC1 [GSK846226]",
    "ASSAY_READOUT": "%Inh",
    "NUMERIC_READOUT": 14
  },
  {
    "MOLECULE": "Cc1ccccc1-n1cnc2c(N)ncnc21 [SKF-97510]",
    "ASSAY_READOUT": "%Inh",
    "NUMERIC_READOUT": 15
  },
  {
    "MOLECULE": "Cc1cccc(-c2cc(Nc3ccncc3)c3ccccc3n2)n1 [GSK223675]",
    "ASSAY_READOUT": "%Inh",
    "NUMERIC_READOUT": 10
  },
  {
    "MOLECULE": "Cc1cc(NCC(c2ccccc2)c2ccccc2)nc(NCc2ccc(C(F)(F)F)cc2)n1 [GW497681]",
    "ASSAY_READOUT": "%Inh",
    "NUMERIC_READOUT": 0
  },
  {
    "MOLECULE": "Cc1cccc(-c2nc(Nc3ccc4[nH]ncc4c3)c3ccccc3n2)n1 [GW857175]",
    "ASSAY_READOUT": "%Inh",
    "NUMERIC_READOUT": 1
  }
]

* * *

System: LCK
Details: concentration: 1 μM, replicates: in singlicate; n = 1

[
  {
    "TEST_SMILES": "COc1ccc(C2=C(Nc3cccc(C(=O)O)c3)C(=O)NC2=O)cc1",
    "UNIT_TAG": "%",
    "%Inh": 10
  },
  {
    "TEST_SMILES": "O=S(=O)(c1ccc(-c2ccnc3[nH]ccc23)cc1)N1CCCC1",
    "UNIT_TAG": "%",
    "%Inh": 5
  },
  {
    "TEST_SMILES": "Cc1cccc(-c2nc(Nc3ccc4[nH]ncc4c3)c3ccccc3n2)n1",
    "UNIT_TAG": "%",
    "%Inh": 10
  }
]

* * *

Tested on: MEK2
Construct: gene MAP2K2
Conditions: concentration: 1 μM, replicates: in singlicate; n = 1
Reported %Inh values for a set of compounds
ASSAY_READOUT: %Inh (%)

[
  {
    "COMPOUND": "COc1cc2ncn(-c3cc(OCC4CCCO4)c(C(N)=O)s3)c2cc1OC (centres unmarked) [GSK204607]",
    "ASSAY_READOUT": "%Inh",
    "UNIT_TAG": "%",
    "NUMERIC_READOUT": 9
  },
  {
    "COMPOUND": "O=C(Nc1ccccc1)Nc1cccc(Oc2ccc3nccn3n2)c1",
    "ASSAY_READOUT": "%Inh",
    "UNIT_TAG": "%",
    "NUMERIC_READOUT": 0
  },
  {
    "COMPOUND": "Nc1ncnc2[nH]c(-c3ccccc3)nc12 [AH5015]",
    "ASSAY_READOUT": "%Inh",
    "UNIT_TAG": "%",
    "NUMERIC_READOUT": 0
  },
  {
    "COMPOUND": "Cc1cccc(-c2nc(C)cc(Nc3ccncc3)n2)n1 [GSK257997]",
    "ASSAY_READOUT": "%Inh",
    "UNIT_TAG": "%",
    "NUMERIC_READOUT": 0
  },
  {
    "COMPOUND": "Cl.O=C(Nc1cccc(-c2nn3ncccc3c2-c2ccnc(Nc3cccnc3)n2)c1)c1c(F)cccc1F [GSK312879]",
    "ASSAY_READOUT": "%Inh",
    "UNIT_TAG": "%",
    "NUMERIC_READOUT": 9
  },
  {
    "COMPOUND": "Fc1cc(Cl)ccc1Nc1ccnc2cc(I)ccc12 [GW551191]",
    "ASSAY_READOUT": "%Inh",
    "UNIT_TAG": "%",
    "NUMERIC_READOUT": 0
  },
  {
    "COMPOUND": "COc1cccc(NC(=O)NC2CCN(c3ccnc(Nc4ccc(F)cc4)n3)C2)c1 (centres unmarked) [GSK1379721]",
    "ASSAY_READOUT": "%Inh",
    "UNIT_TAG": "%",
    "NUMERIC_READOUT": 22
  },
  {
    "COMPOUND": "CC1=C(C(=O)Nc2cc3cn[nH]c3cc2F)C(c2ccc(C(F)(F)F)cc2)CC(=O)N1 (centres unmarked) [GSK429286]",
    "ASSAY_READOUT": "%Inh",
    "UNIT_TAG": "%",
    "NUMERIC_READOUT": 0
  },
  {
    "COMPOUND": "Fc1cccc(COc2nnc(-c3ccc4c(c3)CCO4)o2)c1",
    "ASSAY_READOUT": "%Inh",
    "UNIT_TAG": "%",
    "NUMERIC_READOUT": 4
  },
  {
    "COMPOUND": "O=S(=O)(c1ccc(-c2ccnc3[nH]ccc23)cc1)N1CCCC1 [GSK846226]",
    "ASSAY_READOUT": "%Inh",
    "UNIT_TAG": "%",
    "NUMERIC_READOUT": 22
  },
  {
    "COMPOUND": "CS(=O)(=O)c1ccc(-c2c(-c3ncn[nH]3)sc(N3CCOCC3)c2C#N)cc1",
    "ASSAY_READOUT": "%Inh",
    "UNIT_TAG": "%",
    "NUMERIC_READOUT": 0
  }
]

* * *

Tested on: LIMK1
Conditions: concentration: 1 μM, replicates: in singlicate; n = 1
ASSAY_READOUT: %Inh (%)

[
  {
    "COMPOUND": "Cc1ccc(NC(=O)Nc2cccc(Cl)c2)cc1-c1ccc(C(=O)Nc2ccncc2)cc1 [GSK1398468]",
    "ASSAY_READOUT": "%Inh",
    "NUMERIC_READOUT": 0
  },
  {
    "COMPOUND": "Cc1cccc(-c2nc(-c3ccc(S(C)(=O)=O)cc3)sc2-c2ccnc(NCCc3ccccc3)c2)c1",
    "ASSAY_READOUT": "%Inh",
    "NUMERIC_READOUT": 0
  },
  {
    "COMPOUND": "COc1cccc(NC(=O)NC2CCN(c3ccnc(Nc4ccc(F)cc4)n3)C2)c1 (stereo not shown) [GSK1379721]",
    "ASSAY_READOUT": "%Inh",
    "NUMERIC_READOUT": 0
  },
  {
    "COMPOUND": "O=C(Nc1ccccc1)Nc1cccc(Oc2ccc3nccn3n2)c1",
    "ASSAY_READOUT": "%Inh",
    "NUMERIC_READOUT": 0
  },
  {
    "COMPOUND": "Cl.c1ccc(-c2n[nH]cc2-c2ccnc(-c3ccc(CN4CCOCC4)cc3)c2)nc1 [GW776245]",
    "ASSAY_READOUT": "%Inh",
    "NUMERIC_READOUT": 5
  },
  {
    "COMPOUND": "CC1=C(C(=O)Nc2cc3cn[nH]c3cc2F)C(c2ccc(C(F)(F)F)cc2)CC(=O)N1 (stereo not shown) [GSK429286]",
    "ASSAY_READOUT": "%Inh",
    "NUMERIC_READOUT": 0
  },
  {
    "COMPOUND": "Cc1ccccc1-n1cnc2c(N)ncnc21 [SKF-97510]",
    "ASSAY_READOUT": "%Inh",
    "NUMERIC_READOUT": 16
  }
]
